Let's look at some molecules and their measured IC50.
# Experimental System: BRD4 (BD1+BD2) bromodomain (Homo sapiens (Human))
# Experiment: BRD4 binding inhibition (AlphaScreen, GST-BRD4 vs tetraacetylated histone H4 peptide)
# Test Parameters: GST-BRD4 (BD1+BD2) / biotinylated acetyl-histone H4 (Lys5,8,12,16) peptide; read-out: IC50, BRD4 binding inhibition

Example entries and their recorded answers appear below.
- Molecule: "COc1c(C)ccc2c1nc(NCCCCNC(=O)OC(C)C)c1nnc(C)n12"
  IC50: "≤ 50 nM"
- Molecule: "Cc1nnc2c(NCCCCNC(=O)c3cccc(Cl)c3)nc3ccccc3n12"
  IC50: "≤ 50 nM"

Asked: Which IC50 value belongs to `COCCn1c(-c2ccc3c(c2)nc(NCCCCNC(=O)CC(C)C)c2nnc(C)n23)nc2ccccc21` ?
Given back: ≤ 10 nM

Asked: What do you have for `COc1ccc2c(c1)nc(NCCCCNC(=O)[C@@H](OC)C(C)C)c1nnc(C)n12` ?
Given back: ≤ 50 nM

Asked: Same for `Cc1nnc2c(NCCCCNC(=O)CC(C)C)nc3ccc([N+](=O)[O-])cc3n12`
Given back: ≤ 50 nM

Asked: Same read-out for CCC(C)OC(=O)NCCCCNc1nc2cc(OCCOC)ccc2n2c(C)nnc12 (stereo not drawn) ?
Given back: ≤ 10 nM

* * *

# Experimental System: BRD4 (BD1+BD2) bromodomain (Homo sapiens (Human), UniProt O60885)
# Experiment: BRD4 binding inhibition (AlphaScreen, GST-BRD4 vs tetraacetylated histone H4 peptide)
# Test Parameters: GST-BRD4 (BD1+BD2) / biotinylated acetyl-histone H4 (Lys5,8,12,16) peptide; read-out: IC50, BRD4 binding inhibition
pIC50: −log10 of the molar value.
Property Measured: pIC50

- Smiles String: "COCCOc1ccc2c(c1)nc(NCCCCNC(=O)CC(C)C)c1nnc(C)n12"
  Result: "≥ 7.30"
- Smiles String: "COc1cc2nc(NCCCCNC(=O)CC(C)C)c3nnc(C)n3c2cc1Cc1ccc([N+](=O)[O-])cc1"
  Result: "≥ 7.30"
- Smiles String: "Cc1ccc2[nH]c(-c3ccc4c(c3)nc(NCCCCNC(=O)CC(C)C)c3nnc(C)n34)nc2c1"
  Result: "≥ 7.30"

Asked: pIC50 lookup needed for `COCCOc1ccc2c(c1)nc(NCCCCNC(=O)CCC(C)C)c1nnc(C)n12` , thanks.
Given back: ≥ 8.00

* * *

# Experimental System: BRD4 (BD1+BD2) bromodomain (Homo sapiens (Human), UniProt O60885)
# Experiment: BRD4 binding inhibition (AlphaScreen, GST-BRD4 vs tetraacetylated histone H4 peptide)
# Test Parameters: GST-BRD4 (BD1+BD2) vs biotinylated acetyl-histone H4 peptide, AlphaScreen; read-out: BRD4 IC50
pIC50: −log10 of the molar value.
Property Measured: pIC50

Below are worked cases with known answers.
- Molecule: "Cc1nnc2c(NCCCCNC(=O)C(C)C)nc3cc(Cl)c(Cl)cc3n12"
  Experimental System: "BRD4 (BD1+BD2) bromodomain (Homo sapiens (Human), UniProt O60885)"
  Property Measured: "pIC50"
  Number: 7.01
- Molecule: "CCOc1cc2nc(NCCCCNC(=O)OC(C)(C)C)c3nnc(C)n3c2cc1OCC"
  Experimental System: "BRD4 (BD1+BD2) bromodomain (Homo sapiens (Human), UniProt O60885)"
  Property Measured: "pIC50"
  Number: 8.40
- Molecule: "Cc1noc(C)c1-c1ccc2nc(NCCCCN)c3nnc(C)n3c2c1"
  Experimental System: "BRD4 (BD1+BD2) bromodomain (Homo sapiens (Human), UniProt O60885)"
  Property Measured: "pIC50"
  Number: 8.30
- Molecule: "COCCOc1ccc2c(c1)nc(NCCCCNC(=O)C(C)(C)C(F)(F)F)c1nnc(C)n12"
  Experimental System: "BRD4 (BD1+BD2) bromodomain (Homo sapiens (Human), UniProt O60885)"
  Property Measured: "pIC50"
  Number: 8.05

A: Cc1nnc2c(NCCCCNC(=O)CC(C)C)nc3cc(O)ccc3n12
B: CCOC(=O)NCCCCNc1nc2cc(OC)c(OC)cc2n2c(C)nnc12
C: Cc1nnc2c(NCCCCNC(=O)[C@@H](O)C(C)C)nc3cc4c(cc3n12)OCCO4
D: COCCOc1ccc2c(c1)nc(NCCCCNC(=O)SC(C)C)c1nnc(C)n12
E: COc1ccc2c(c1)nc(NCCCCNC(=O)C(C)C)c1nnc(C)n12
Asked: Hey, quick one: sort these by pIC50, largest value first please. Please respond with the labels ordered as the question requires.
Given back: E, D, C, A, B
(E: 9.40, D: 8.40, C: 7.96, A: 7.64, B: 7.25)

* * *

IC50 values by entry
# Experimental System: BRD4 (BD1+BD2) bromodomain (Homo sapiens (Human), UniProt O60885)
# Experiment: BRD4 binding inhibition (AlphaScreen, GST-BRD4 vs tetraacetylated histone H4 peptide)
# Test Parameters: GST-BRD4 (BD1+BD2) / biotinylated acetyl-histone H4 (Lys5,8,12,16) peptide; read-out: IC50, BRD4 binding inhibition

Example entries and their recorded answers appear below.
- Molecule: "COc1ccc2c(c1)nc(NCCCCNC(=O)NC(C)C)c1nnc(C)n12 [Example 330]"
  IC50: "≤ 50 nM"
- Molecule: "COCCOc1ccc2c(c1)nc(NCCCCNC(=O)NC(C)(C)C)c1nnc(C)n12 [Example 424]"
  IC50: "≤ 50 nM"
- Molecule: "Cc1nnc2c(NCCCCNC(=O)CC(C)C)nc3cc(C(=O)O)ccc3n12 [Example 201]"
  IC50: "≤ 50 nM"
- Molecule: "Cc1noc(C)c1-c1ccc2nc(NCCCCNC(=O)OC(C)(C)C)c3nnc(C)n3c2c1 [Example 578]"
  IC50: "≤ 50 nM"
- Molecule: "COc1ccc2nc(NCCCCNC(=O)[C@@H](O)C(C)C)c3nnc(C)n3c2c1 [Example 126]"
  IC50: "≤ 10 nM"
- Molecule: "COc1ccc2c(c1)nc(NCCCCNC(=O)[C@@H](NC(=O)[C@@H](F)C(C)C)C(C)C)c1nnc(C)n12 [Example 321]"
  IC50: "≤ 50 nM"

Asked: // query IC50 value for entry Cc1nnc2c(NCCCCNC(=O)Cc3cccs3)nc3cc(OC(C)C)ccc3n12 [Example 451]
Given back: ≤ 50 nM

* * *

# Experimental System: BRD4 (BD1+BD2) bromodomain (Homo sapiens (Human))
# Experiment: BRD4 binding inhibition (AlphaScreen, GST-BRD4 vs tetraacetylated histone H4 peptide)
# Test Parameters: GST-BRD4 (BD1+BD2) vs biotinylated acetyl-histone H4 peptide, AlphaScreen; read-out: BRD4 IC50
Property Measured: IC50 (nM)

Example molecules with recorded IC50:
- Molecule: "COc1cc2nc(NCCCCNC(=O)OC(C)(C)C)c3nnc(C)n3c2cc1OC"
  Experimental System: "BRD4 (BD1+BD2) bromodomain (Homo sapiens (Human))"
  Number: 20
- Molecule: "C/C=C/C(=O)NCCCCNc1nc2cc(OC)c(OC)cc2n2c(C)nnc12"
  Experimental System: "BRD4 (BD1+BD2) bromodomain (Homo sapiens (Human))"
  Number: 21
- Molecule: "COCCOc1cc2nc(NCCCCNC(=O)OC(C)(C)C)c3nnc(C)n3c2cc1OCCOC"
  Experimental System: "BRD4 (BD1+BD2) bromodomain (Homo sapiens (Human))"
  Number: 24
- Molecule: "COc1ccc2c(c1)nc(NCCCCNC(=O)OC(C)C)c1nnc(C)n12"
  Experimental System: "BRD4 (BD1+BD2) bromodomain (Homo sapiens (Human))"
  Number: 51
- Molecule: "COc1ccc2c(nc(NCCCCNC(=O)OC(C)(C)C)c3nnc(C)n32)c1Cl"
  Experimental System: "BRD4 (BD1+BD2) bromodomain (Homo sapiens (Human))"
  Number: 30

1: COc1ccc2c(c1)nc(NCCCCNC(=O)CC(C)(C)C)c1nnc(C)n12
2: Cc1nnc2c(NCCCCNC(=O)OC3CCCC3)nc3cc4c(cc3n12)OCCO4
Asked: Could you please tell me which of these two has the higher IC50: 1 or 2 ? Please respond with the label that marks your chosen entry.
Given back: 1
(1: 67 nM, 2: 28 nM)

* * *

# Experimental System: BRD4 (BD1+BD2) bromodomain (Homo sapiens (Human), UniProt O60885)
# Experiment: BRD4 binding inhibition (AlphaScreen, GST-BRD4 vs tetraacetylated histone H4 peptide)
# Test Parameters: GST-BRD4 (BD1+BD2) / biotinylated acetyl-histone H4 (Lys5,8,12,16) peptide; read-out: IC50, BRD4 binding inhibition
Property Measured: IC50

- Molecule: "Cc1noc(C)c1-c1ccc2nc(NCCCCN)c3nnc(C)n3c2c1 [Example 579, ditrifluoroacetic acid]"
  IC50: "≤ 10 nM"
- Molecule: "COc1cc2nc(NCCCCNC(=O)N3CCOCC3)c3nnc(C)n3c2cc1OC [Example 92]"
  IC50: "≤ 50 nM"
- Molecule: "Cc1nnc2c(NCCCCNC(=O)OC3CCCC3)nc3cc(-c4nc5ccccc5n4C)ccc3n12 [Example 229]"
  IC50: "≤ 10 nM"

Asked: State the recorded IC50 for this entry: Cc1nnc2c(NCCCCNC(=O)[C@@H](O)C(C)C)nc3cc(OCCN4CCOCC4)ccc3n12 [Example 435]
Given back: ≤ 10 nM

Asked: Now this one: COCCOc1ccc2c(c1)nc(NCCCCNC(=O)[C@@H](NC(=O)C(C)(C)C)C(C)C)c1nnc(C)n12 [Example 402]
Given back: ≤ 50 nM

Asked: // query: COc1ccc2c(c1)nc(NCCCCNC(=O)[C@@H](NS(C)(=O)=O)C(C)C)c1nnc(C)n12 [Example 327]
Given back: ≤ 50 nM

Asked: Another molecule: COc1cc2nc(NCCCCNC(=O)OCC(C)C)c3nnc(C)n3c2cc1OC [Example 62]
Given back: ≤ 10 nM

Asked: Also need CCOc1ccc2c(c1)nc(NCCCCNC(=O)CC(C)C)c1nnc(C)n12 [Example 442] , thanks.
Given back: ≤ 50 nM
